# measuredOn: Human immunodeficiency virus type 1 integrase (Human immunodeficiency virus 1, UniProt Q7ZJM1)
# Sequence (Q7ZJM1 whole entry): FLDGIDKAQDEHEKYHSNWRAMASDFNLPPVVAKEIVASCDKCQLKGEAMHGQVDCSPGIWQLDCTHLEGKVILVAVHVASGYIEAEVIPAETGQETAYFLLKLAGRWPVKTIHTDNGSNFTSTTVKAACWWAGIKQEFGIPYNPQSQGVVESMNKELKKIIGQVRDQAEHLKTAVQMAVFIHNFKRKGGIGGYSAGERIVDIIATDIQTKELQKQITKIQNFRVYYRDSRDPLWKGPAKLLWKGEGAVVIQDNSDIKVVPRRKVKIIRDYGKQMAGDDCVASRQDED
# protocol: Inhibition of recombinant HIV-1 integrase by strand-transfer assay
quantityMeasured: IC50 (nM)
One number for each entry, in nM.

Use the examples below as a reference point.
> print(dat)
                                 itemsmiles  reportedvalue
1  CNC(=O)Cn1c(=O)c(C(=O)NCCOC)c(O)c2ncc(Cc3ccc(F)cc3)cc21              9
2  COCCNC(=O)c1c(O)c2ncc(Cc3ccc(F)cc3)cc2n(CC(=O)NCCN(C)C)c1=O             45
3  CN(C)C(=O)Cn1c(=O)c(C(=O)NC(C)(C)CO)c(O)c2ncc(Cc3ccc(F)cc3)cc21            6.5
4  CNC(=O)c1c(O)c2ncc(Cc3ccc(F)cc3)cc2n(CC(=O)NC(C)C)c1=O            7.8
5  COCCNC(=O)c1c(O)c2ncc(Cc3ccc(F)cc3)cc2n(CC(N)=O)c1=O            7.7

I need IC50 for every entry listed below, if you could help.
1. COCCNC(=O)c1c(O)c2ncc(Cc3ccc(F)cc3)cc2n(CC(=O)N2CCCCC2)c1=O
2. COCCNC(=O)c1c(O)c2ncc(Cc3ccc(F)cc3)cc2n(CC(=O)NCC(F)(F)F)c1=O
3. CN(C)C(=O)Cn1c(=O)c(C(=O)NCCO)c(O)c2ncc(Cc3ccc(F)cc3)cc21
4. CNC(=O)c1c(O)c2ncc(Cc3ccc(F)cc3)cc2n(CC(N)=O)c1=O

1: 4.7; 2: 11; 3: 5.7; 4: 7.6

Data provenance is ChEMBL document CHEMBL3352021.
